Recorded values, source patent US7504519B2.

system: rats; experiment: Analgesia test on rats (carrageenan subplantar injection, thermal stimulus, Hargreaves method); type: in vivo; details: analgesic activity, rat, 2.5 mg/kg i.v., 120 min after administration; compound given 3 h after carrageenan
The compounds listed here are annotated with their % activity At 120 min..
Give just the numeric value; % need not be written.

These solved cases illustrate the format of a correct answer.
Compound	Observed property	Uom	Value measured
COC(=O)c1ccc(NS(=O)(=O)c2ccc(N3N=C(C(F)(F)F)CC3c3ccccc3)cc2)cc1 (stereo not drawn)	% activity At 120 min.	%	66
COC(=O)NS(=O)(=O)c1ccc(C2CC(C(F)(F)F)=NN2c2ccccc2)cc1 (stereo not drawn)	% activity At 120 min.	%	49

Turning now to a further record.
Quote % activity At 120 min. reported for O=C(CO)NS(=O)(=O)c1ccc(N2N=C(C(F)(F)F)CC2c2ccccc2)cc1 (stereo not drawn) please.
40

* * *

The molecules listed here are annotated with their % activity At 120 min..
Tested on: rats
Test: Analgesia test on rats (carrageenan subplantar injection, thermal stimulus, Hargreaves method)
Type: in vivo
Settings: analgesic activity, rat, 2.5 mg/kg i.v., 120 min after administration; compound given 3 h after carrageenan
Procedure: Biological Activity Analgesia Test on Rats The analgesic activity of the compounds of the invention is tested as described in the publication by K. Hargreaves et al., Pain, 32. 77-88. (1988). […] Three hours following the subplantar injections of carrageenan and vehicle, each rat was intravenously administered with compounds to be tested, dissolved in sterile saline serum, at a dose of 1 ml per kg of body weight. Then after administration of compounds, analgesic activity values were readed. […]
Give just the numeric value; % need not be written.

These solved cases illustrate the format of a correct answer.
Molecule	Uom	% activity At 120 min.
CCCCOC(=O)NS(=O)(=O)c1ccc(C2CC(C(F)(F)F)=NN2c2ccccc2)cc1 (stereo not drawn)	%	75
O=C(NS(=O)(=O)c1ccc(N2N=C(C(F)(F)F)CC2c2ccccc2)cc1)c1ccc(C(F)(F)F)cc1 (stereo not drawn)	%	76

Quote % activity At 120 min. reported for CCC(=O)NS(=O)(=O)c1ccc(C2CC(C(F)(F)F)=NN2c2ccccc2)cc1 (stereo not drawn) please.
51
